- Tested on: DU-145 prostate
- ASSAY NAME: NCI tumour cell line growth inhibition, 48 h; in the data active means GI50 below about 0.43 µM; inactive means the rest
# output must be one of TRUE = active, FALSE = inactive

Example results:
MOLECULE | TARGET DESC | LABEL
CS(=O)(=O)Nc1cc(-c2ccc3ncnc(Nc4cccc(Cl)c4F)c3c2)cnc1Cl | DU-145 prostate | FALSE
CN(C)CCNc1c2c(c(NCCN(C)C)c3c(CO)c[nH]c13)C(=O)c1ccccc1C2=O | DU-145 prostate | FALSE
C[C@H]1CC2=CC(=O)CC[C@]2(C)[C@H]2CC[C@@]3(C)[C@@H](CC[C@]3(C)O)[C@H]12 | DU-145 prostate | FALSE
Cc1ccc(/C=C2\CN(Cc3cn(CCNc4ccnc5cc(Cl)ccc45)nn3)C/C(=C\c3ccc(C)cc3)C2=O)cc1 | DU-145 prostate | FALSE
O[C@H](CN1CC1)[C@@H](O)CN1CC1 | DU-145 prostate | FALSE
Cc1[nH]n(-c2ccccc2)c(=O)c1C(=O)c1ccccc1 | DU-145 prostate | FALSE

Q. Please share the test call associated with "O=C(c1ccccc1)c1ccccc1C(=O)c1ccccc1" .
A. FALSE

Q. Please share the test call associated with "NC(=S)N/N=C\c1nccc2c(C(F)(F)C(F)(F)C(F)(F)F)cccc12" .
A. TRUE

Q. Please share the test call associated with "N#Cc1c(NCc2ccccc2)nc(NCc2ccccc2)c(C#N)c1-c1cccc(O)c1" .
A. FALSE

* * *

- Tested on: HOP-92 NSCLC
- ASSAY NAME: NCI tumour cell line growth inhibition, 48 h
MEASUREMENT NAME: GI50

COMPOUND | TARGET DESC | GI50
CCCNc1cccc(-n2ncc3c(N/N=C/c4ccncc4)ncnc32)c1 | HOP-92 NSCLC | 9320 nM
COc1ccc(S(=O)(=O)n2c3ccccc3n3ncc(-c4nnc(C)o4)c23)cc1 | HOP-92 NSCLC | 365 nM
NC1CCCCC1N.O=S(=O)([O-])CCCN1CCN(CCO)CC1.O=S(=O)([O-])CCCN1CCN(CCO)CC1.[Pt+4] | HOP-92 NSCLC | 19000 nM
C#CCOc1cccc(Nc2ncc3ncn(C4CCN(C(=O)CCl)C4)c3n2)c1 (stereo not given) | HOP-92 NSCLC | > 62500 nM
N#Cc1ncc(N2C(=O)C3(CCC3)N(c3ccc(OC4CCNCC4)nc3)C2=S)cc1C(F)(F)F | HOP-92 NSCLC | 1110 nM

Q. Give recorded GI50. "O=[N+]([O-])c1ccc(NC(=S)N/N=C(\c2ccccc2)c2ccccn2)cc1"
A. 1320 nM

Q. Give recorded GI50. Cc1c(N)nc(C(CC(N)=O)NCC(N)C(N)=O)nc1C(=O)NC(C(=O)NC(C)C(O)C(C)C(=O)NC(C(=O)NCCc1nc(-c2nc(C(=O)NCCCNCCCCN)cs2)cs1)C(C)O)C(OC1OC(CO)C(O)C(O)C1OC1OC(CO)C(O)C(OC(N)=O)C1O)c1cnc[nH]1 (stereo not given)
A. 3.38 µg/mL

Q. Give recorded GI50. "Cn1c(O)c(N=NC(N)=S)c2ccccc21"
A. 88000 nM

Q. Give recorded GI50. "C(#Cc1ccccc1C#Cc1ccccn1)c1ccccn1"
A. 1960 nM

Q. Give recorded GI50. "C=C1C[C@@H]2[C@H](CC[C@]3(C)C(=O)CC[C@@H]23)[C@@]2(C)C=CC(=O)C=C12"
A. > 100000 nM

Q. Give recorded GI50. "c1cc2ccc1CNCCN1CCNCc3ccc(cc3)Oc3ccc(cc3)CNCCN(CCNCc3ccc(cc3)O2)CCNCc2ccc(cc2)Oc2ccc(cc2)CNCC1"
A. 20.2 nM

Q. Give recorded GI50. "C=C(C)[C@@H]1CC[C@]2(C)[C@H](CC=C3[C@@H]4[C@H](C)[C@@H](C)CC[C@]4(CO)CC[C@]32C)[C@@]1(C)CCCN"
A. 1040 nM

Q. Give recorded GI50. "CC(=O)O[C@H](C[C@H](C(C)C)N(C)C(=O)[C@@H](NC(=O)[C@H]1CCCCN1C)C(C)(C)C)c1nc(C(=O)N[C@@H](Cc2ccccc2)C[C@H](C)C(=O)O)cs1"
A. < 2.5 nM

Q. Give recorded GI50. "O=C(Nc1cccc([N+](=O)[O-])c1)c1cc2ccccc2cc1O"
A. 422 nM

Q. Give recorded GI50. "S=C(Nc1ccccc1)N1CCn2c1nsc2=Nc1ccccc1"
A. 92700 nM
